Quick list: inhibition at 10 µM per entry.
- Test system: NCI-H460
- measurement-description: NCI-60 anticancer screening (SRB)
- Assay type: cell-based
- experimental-conditions: Homo sapiens; NCI-H460, NSC lung cancer; one dose 10 μM; read-out: Growth Inhibition Percentage (GI %)
// units = %; emit number, no label

compound	reported-metric	endpoint-result
CCOC(=O)C1=C(N)N(c2ccccc2)C2=C(C(=O)CC(C)(C)C2)C1c1ccccc1Cl (racemic) [6a]	inhibition at 10 µM	40

Let us examine a further case.
Lookup result for CCOC(=O)C1=C(N)N(c2ccc(Cl)cc2)C2=C(C(=O)CC(C)(C)C2)C1c1ccccc1OC (racemic) [6i] ; measured inhibition at 10 µM: 51
